Reference for the values: patent US20240084003A1

Molecular target: T1, monkey CD22 protein (ACROBiosystems, catalog number SI2-R52Ha) (monkey, UniProt F6W485 20-688)
T1 construct: commercial protein; also called monkey CD22-ECD; monkey CD22-ECD-His
T1 sequence: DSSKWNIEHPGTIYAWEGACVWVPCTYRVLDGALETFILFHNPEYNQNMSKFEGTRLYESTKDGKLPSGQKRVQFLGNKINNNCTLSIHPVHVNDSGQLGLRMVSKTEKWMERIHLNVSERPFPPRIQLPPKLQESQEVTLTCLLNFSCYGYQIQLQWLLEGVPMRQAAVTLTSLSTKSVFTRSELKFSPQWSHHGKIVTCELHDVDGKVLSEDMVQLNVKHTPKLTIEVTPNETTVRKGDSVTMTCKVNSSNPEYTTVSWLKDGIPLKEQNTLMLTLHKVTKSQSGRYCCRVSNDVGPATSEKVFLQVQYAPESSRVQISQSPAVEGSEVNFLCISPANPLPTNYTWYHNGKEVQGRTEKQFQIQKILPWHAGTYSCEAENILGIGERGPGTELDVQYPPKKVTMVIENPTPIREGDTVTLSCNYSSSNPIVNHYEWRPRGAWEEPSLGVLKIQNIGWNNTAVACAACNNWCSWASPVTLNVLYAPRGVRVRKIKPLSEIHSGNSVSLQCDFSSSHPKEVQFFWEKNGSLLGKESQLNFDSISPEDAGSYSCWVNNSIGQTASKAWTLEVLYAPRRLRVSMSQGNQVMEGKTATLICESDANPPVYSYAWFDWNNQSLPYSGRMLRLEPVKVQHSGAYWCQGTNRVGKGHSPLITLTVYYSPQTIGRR
Experiment: ELISA, coated monkey CD22 protein, antibody 0.0001 nM
experimental endpoint: OD450

{"binder": "F1.245.2 (antibody, human IgG1, kappa, V domains shown, human-murine chimeric IgG1 kappa) VH: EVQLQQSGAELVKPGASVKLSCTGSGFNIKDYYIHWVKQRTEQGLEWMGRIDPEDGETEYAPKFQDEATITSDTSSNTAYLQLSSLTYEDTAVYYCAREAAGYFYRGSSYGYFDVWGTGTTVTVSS VL: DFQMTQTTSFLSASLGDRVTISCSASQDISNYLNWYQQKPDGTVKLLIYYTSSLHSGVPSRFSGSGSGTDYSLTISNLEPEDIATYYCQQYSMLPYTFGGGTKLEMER", "experimental endpoint": "OD450", "observed result": "0.06 OD450"}

Q. Find the recorded OD450 belonging to F2.343.16 (antibody, human IgG1, lambda, V domains shown, human-murine chimeric IgG1 lambda; VL name legible) VH: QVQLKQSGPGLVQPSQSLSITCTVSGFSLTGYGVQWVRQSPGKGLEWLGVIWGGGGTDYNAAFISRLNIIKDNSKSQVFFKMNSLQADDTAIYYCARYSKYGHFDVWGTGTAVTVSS VL: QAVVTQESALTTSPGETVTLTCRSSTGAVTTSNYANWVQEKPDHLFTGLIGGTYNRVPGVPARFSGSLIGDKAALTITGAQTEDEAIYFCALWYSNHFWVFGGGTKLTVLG and report it.
A. 0.05 OD450
